The entries below pair compounds with pKi values for Amine oxidase [flavin-containing] A (Homo sapiens), as found in several publications.
pKi here: minus log base 10 of the concentration, concentration in moles per litre.

Here is how some compounds turned out for pKi.
{"columns": ["compound", "pKi"],
 "data": [
  ["CC(=O)NC[C@H]1CN(c2ccc(C3=CCS(=O)(=O)CC3)c(F)c2)C(=O)O1", 5.23],
  ["Cc1cccc(NC(=S)N2N=C(c3ccccc3)CC2c2ccc(O)cc2)c1 (stereo not drawn)", 6.89],
  ["COc1ccc(/C=C/C(=N\\NC(=O)c2ccco2)c2ccc(Br)cc2)cc1", 7.04]
]}

Query: pKi; subject: c1ccc2oc(C3=NCCN3)cc2c1 4.77

Field request: pKi | item: Cc1ccc(/C=C/C(=O)c2cc(Br)ccc2O)cc1 6.89

pKi lookup needed for N=C(N)N1N=C(c2ccccc2)CC1c1ccncc1 (stereo not drawn) , thanks. 6.17

---

Ki values for UniProt:P21397, compiled from several publications.
system-tested: UniProt:P21397
Sequence (P21397 whole entry): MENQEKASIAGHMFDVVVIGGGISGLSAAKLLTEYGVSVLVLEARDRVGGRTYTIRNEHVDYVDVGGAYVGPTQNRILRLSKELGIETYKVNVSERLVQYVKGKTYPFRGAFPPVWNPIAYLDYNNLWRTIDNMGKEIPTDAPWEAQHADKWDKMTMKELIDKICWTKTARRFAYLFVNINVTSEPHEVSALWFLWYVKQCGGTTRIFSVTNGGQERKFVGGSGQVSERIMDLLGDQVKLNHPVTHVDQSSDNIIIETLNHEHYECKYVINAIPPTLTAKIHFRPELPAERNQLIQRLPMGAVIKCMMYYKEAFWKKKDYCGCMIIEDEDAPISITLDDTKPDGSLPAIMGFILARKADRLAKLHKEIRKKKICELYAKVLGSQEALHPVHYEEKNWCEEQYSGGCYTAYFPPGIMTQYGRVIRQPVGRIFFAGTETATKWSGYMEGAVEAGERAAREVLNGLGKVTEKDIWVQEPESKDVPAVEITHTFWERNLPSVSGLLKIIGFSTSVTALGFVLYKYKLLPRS
Hi! Could you send only the number? It should be in nM, unit omitted.

// solved cases for Ki follow
{"columns": ["molecule", "units-of-measure", "Ki"],
 "data": [
  ["COC[C@H]1CN(c2ccc(OCCO)cc2)C(=O)O1", "nM", 390],
  ["C=CCNC(=S)N1N=C(c2ccccc2)CC1c1ccc(F)cc1 (centres undefined)", "nM", 0.1],
  ["Cc1ccc(C2=NN(C(=S)Nc3ccccc3)C(c3ccc(F)cc3)C2)cc1 (centres undefined)", "nM", 0.1]
]}

Here's the next entry for you.
Look at this molecule and give its reported Ki. Cc1cn(C[C@H]2CN(c3ccc(C4=CCS(=O)(=O)CC4)c(F)c3)C(=O)O2)nn1 25000

---

system-tested: Amine oxidase [flavin-containing] A (Homo sapiens, UniProt P21397)
Sequence (P21397 whole entry): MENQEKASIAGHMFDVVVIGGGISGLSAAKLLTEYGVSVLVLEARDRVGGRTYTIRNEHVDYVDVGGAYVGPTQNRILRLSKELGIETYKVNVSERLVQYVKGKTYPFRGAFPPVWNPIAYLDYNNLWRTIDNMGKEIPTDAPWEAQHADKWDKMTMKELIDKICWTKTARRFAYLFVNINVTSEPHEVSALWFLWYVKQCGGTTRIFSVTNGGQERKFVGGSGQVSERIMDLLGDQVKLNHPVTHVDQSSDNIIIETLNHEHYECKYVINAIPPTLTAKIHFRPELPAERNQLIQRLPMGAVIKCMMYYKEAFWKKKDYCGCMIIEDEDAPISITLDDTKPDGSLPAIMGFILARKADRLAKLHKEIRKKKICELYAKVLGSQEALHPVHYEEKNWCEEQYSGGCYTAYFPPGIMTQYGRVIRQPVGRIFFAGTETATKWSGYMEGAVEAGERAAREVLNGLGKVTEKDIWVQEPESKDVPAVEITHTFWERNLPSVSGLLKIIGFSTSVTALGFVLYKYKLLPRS
Below are Ki measurements against Amine oxidase [flavin-containing] A (Homo sapiens, UniProt P21397) drawn from the literature.

{"columns": ["compound", "Ki"],
 "data": [
  ["N#CCc1cn(C[C@H]2CN(c3ccc(C4=CCS(=O)(=O)CC4)c(F)c3)C(=O)O2)nn1", "> 200000 nM"]
]}

Give the measured Ki of C=CCNC(=S)N1N=C(c2ccc(OC)cc2)CC1c1ccc(F)cc1 (stereo not given) . 0.1 nM

May I ask what Ki has been recorded for NC(=S)N1N=C(c2ccccc2)CC1c1ccncc1 (stereo not given) ? 456 nM

I'd like to know its Ki. The compound in question is N#Cc1ccc(-c2cc(OCC3CCNCC3)cnc2-c2ccc(OC(F)(F)F)cc2)cc1 > 50000 nM

Request the reported Ki associated with Cc1cnnn1C[C@H]1CN(c2ccc(C3=CCS(=O)(=O)CC3)c(F)c2)C(=O)O1 4500 nM

State the recorded Ki for this entry: O=C1O[C@@H](Cn2cc(CO)nn2)CN1c1ccc(C2=CCS(=O)(=O)CC2)c(F)c1 47000 nM
